- SYSTEM_UNDER_TEST: Broad substrate specificity ATP-binding cassette transporter ABCG2 (Homo sapiens, UniProt Q9UNQ0)
- Sequence (Q9UNQ0 whole entry): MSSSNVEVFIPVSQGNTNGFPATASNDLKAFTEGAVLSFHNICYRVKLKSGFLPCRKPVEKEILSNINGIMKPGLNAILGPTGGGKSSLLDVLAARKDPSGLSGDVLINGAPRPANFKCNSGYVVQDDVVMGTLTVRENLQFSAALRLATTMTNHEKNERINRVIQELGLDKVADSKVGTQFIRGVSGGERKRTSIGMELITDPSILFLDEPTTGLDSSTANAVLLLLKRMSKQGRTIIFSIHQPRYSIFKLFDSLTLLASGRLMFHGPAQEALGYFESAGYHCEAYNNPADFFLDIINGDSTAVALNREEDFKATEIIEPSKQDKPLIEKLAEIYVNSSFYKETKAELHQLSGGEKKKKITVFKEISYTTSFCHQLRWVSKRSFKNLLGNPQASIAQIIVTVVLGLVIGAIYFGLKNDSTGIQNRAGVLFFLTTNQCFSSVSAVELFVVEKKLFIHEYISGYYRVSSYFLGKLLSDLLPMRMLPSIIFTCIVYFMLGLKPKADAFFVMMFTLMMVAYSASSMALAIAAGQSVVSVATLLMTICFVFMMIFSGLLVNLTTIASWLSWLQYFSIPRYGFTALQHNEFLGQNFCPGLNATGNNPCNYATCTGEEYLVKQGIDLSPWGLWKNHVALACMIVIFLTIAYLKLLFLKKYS
- PROTOCOL_NOTES: Inhibition of ABCG2 expressed in HEK293 cells assessed as mitoxantrone-mediated efflux by flow cytometry relative to GF120918
- Assay type: cell-based
- Parameters: concentration or dose not given beside the values
With a cut-off of 70%, any Inhibition strictly below it is called Met; any Inhibition meeting it or above is called Not met.

{"SMILES_REPRESENTATION": "COc1cc(C(F)(F)F)cc2[nH]c3ccccc3c(=O)c12", "LABEL_VALUE": "Not met"}
{"SMILES_REPRESENTATION": "COc1cc2c(cc1OC)CN(CCc1ccc(NC(=O)c3cccc4c(=O)c5cccc(OC)c5[nH]c34)cc1)CC2", "LABEL_VALUE": "Not met"}
{"SMILES_REPRESENTATION": "COc1ccc2c(=O)c3cccc(C(=O)NCCc4ccc(OC)c(OC)c4)c3[nH]c2c1", "LABEL_VALUE": "Not met"}
{"SMILES_REPRESENTATION": "COc1cccc2[nH]c3ccccc3c(=O)c12", "LABEL_VALUE": "Not met"}
{"SMILES_REPRESENTATION": "COc1ccc(CCNC(=O)c2cccc3c(=O)c4ccc(OC)cc4[nH]c23)cc1", "LABEL_VALUE": "Not met"}
{"SMILES_REPRESENTATION": "COc1ccc2[nH]c3ccccc3c(=O)c2c1", "LABEL_VALUE": "Met"}
{"SMILES_REPRESENTATION": "COc1cc(OC)c2c(=O)c3ccccc3[nH]c2c1", "LABEL_VALUE": "Met"}
{"SMILES_REPRESENTATION": "COc1ccc(CCNC(=O)c2cccc3c(=O)c4ccccc4[nH]c23)cc1OC", "LABEL_VALUE": "Not met"}

From: ChEMBL document CHEMBL1147844
